// reported inhibition at 1 µM for each item listed
target: panel of 255 wild-type kinases (Homo sapiens); experiment: Kinase panel profiling at 1 µmol/L (MSA or IMAP), percentage inhibition; type: biochemical; details: kinase HIPK2; 1 µmol/L single concentration; read-out: %-inhibition at 1 µmol/L, HIPK2
Sequence (Q9H2X6 whole entry): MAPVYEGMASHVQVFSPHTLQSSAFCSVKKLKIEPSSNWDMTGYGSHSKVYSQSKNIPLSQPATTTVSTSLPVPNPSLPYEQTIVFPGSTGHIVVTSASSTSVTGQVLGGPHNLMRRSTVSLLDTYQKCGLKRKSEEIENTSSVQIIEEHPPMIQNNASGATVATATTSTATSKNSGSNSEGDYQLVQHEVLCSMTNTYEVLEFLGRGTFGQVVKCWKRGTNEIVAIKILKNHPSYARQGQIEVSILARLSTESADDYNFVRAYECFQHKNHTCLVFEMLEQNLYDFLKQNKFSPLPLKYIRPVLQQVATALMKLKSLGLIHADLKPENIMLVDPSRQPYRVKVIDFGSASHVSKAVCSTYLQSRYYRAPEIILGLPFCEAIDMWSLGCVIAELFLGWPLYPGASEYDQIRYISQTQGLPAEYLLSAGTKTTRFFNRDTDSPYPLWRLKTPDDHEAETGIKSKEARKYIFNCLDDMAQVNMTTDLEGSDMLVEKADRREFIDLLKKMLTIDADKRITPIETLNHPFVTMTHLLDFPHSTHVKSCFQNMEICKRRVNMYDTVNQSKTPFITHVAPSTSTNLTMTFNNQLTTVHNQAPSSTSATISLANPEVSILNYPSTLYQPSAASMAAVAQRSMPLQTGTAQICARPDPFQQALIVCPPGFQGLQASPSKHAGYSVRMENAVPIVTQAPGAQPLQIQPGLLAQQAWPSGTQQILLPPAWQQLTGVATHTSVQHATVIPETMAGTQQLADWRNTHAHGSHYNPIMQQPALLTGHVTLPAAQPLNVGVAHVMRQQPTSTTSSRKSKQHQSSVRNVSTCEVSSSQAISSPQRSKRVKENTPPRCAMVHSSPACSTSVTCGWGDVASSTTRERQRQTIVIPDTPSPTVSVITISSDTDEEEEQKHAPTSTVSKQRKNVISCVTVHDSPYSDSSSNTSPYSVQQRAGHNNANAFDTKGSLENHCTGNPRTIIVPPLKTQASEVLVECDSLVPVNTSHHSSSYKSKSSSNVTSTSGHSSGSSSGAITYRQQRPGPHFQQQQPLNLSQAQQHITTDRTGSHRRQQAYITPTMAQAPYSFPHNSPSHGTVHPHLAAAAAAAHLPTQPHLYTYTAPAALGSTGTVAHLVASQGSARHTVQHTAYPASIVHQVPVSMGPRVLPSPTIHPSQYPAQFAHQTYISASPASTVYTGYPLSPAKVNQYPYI
Number in %, nothing else.

Some entries whose results are on file:
line_notation=Cn1cnc2c(F)c(Nc3ccc(Br)cc3F)c(C(=O)NOCCO)cc21 tested_system="panel of 255 wild-type kinases (Homo sapiens)" metric="inhibition at 1 µM" unit_tag=% experimental_value=-4.27
line_notation=COC(=O)N[C@@H](C)CNc1nccc(-c2cn(C(C)C)nc2-c2cc(Cl)cc(NS(C)(=O)=O)c2F)n1 tested_system="panel of 255 wild-type kinases (Homo sapiens)" metric="inhibition at 1 µM" unit_tag=% experimental_value=0.238
line_notation=CCc1nc(C(N)=O)c(Nc2ccc(N3CCC(N4CCN(C)CC4)CC3)c(OC)c2)nc1NC1CCOCC1 tested_system="panel of 255 wild-type kinases (Homo sapiens)" metric="inhibition at 1 µM" unit_tag=% experimental_value=84

Short answer for COc1ccc(CN2C3CC2CN(c2ccc(-c4cc(OCC(C)(C)O)cn5ncc(C#N)c45)cn2)C3)cn1 : inhibition at 1 µM was 0.223

Short answer for COc1cc2ncnc(Nc3ccc(F)c(Cl)c3)c2cc1NC(=O)/C=C/CN1CCCCC1 : inhibition at 1 µM was 4.76
